system: CAL-120, human breast adenocarcinoma cells; assay: Proliferation assay CAL-120 (crystal violet, 4 days); assay type: cell-based; conditions: Homo sapiens, CAL-120, 96 h, CAL-120 cells, median, read-out: Prolif-CAL-120, IC50-[mol/l] (median)
assay endpoint: pIC50
Hey, just a heads up that pIC50 is the negative log base 10 of the concentration in molar.

Query string: Read the entry C[C@@H]1CN(c2nc(NCc3nc4cc(F)ccc4[nH]3)n3ncc(Br)c3n2)C[C@H](C)O1 [Example 110] and write its reported pIC50.
Result string: 8.30

Query string: For the compound Fc1cc2nc(CNc3nc(N4C[C@H]5CC[C@@H](C4)N5)nc4c(C5CC5)cnn34)[nH]c2cc1Cl [Example 328] , report pIC50.
Result string: 9.05

Query string: Input Fc1c(Cl)ccc2[nH]c(CNc3nc(N4CCOCC4)nc4c(C5CC5)cnn34)nc12 [Example 370] , output reported pIC50.
Result string: 8.44

Query string: Query pIC50 for N=S1(=O)CCN(c2nc(NCc3nc4ccccc4[nH]3)n3ncc(Br)c3n2)CC1 [Example 145]
Result string: 6.65

====

molecular target: CDK12 (nuclear staining in CAL-120 cells) (Homo sapiens, UniProt Q9NYV4); construct: endogenous in cells; host or cells: CAL-120 human breast cancer cells (DSMZ ACC 459); test: CDK12 nuclear protein level: immunofluorescence/high content analysis (CAL-120); type: cell-based; details: ratio of IC50 CDK12 high ATP kinase assay to DC50 CDK12 degradation (IF, CAL-120)
Sequence (Q9NYV4 whole entry): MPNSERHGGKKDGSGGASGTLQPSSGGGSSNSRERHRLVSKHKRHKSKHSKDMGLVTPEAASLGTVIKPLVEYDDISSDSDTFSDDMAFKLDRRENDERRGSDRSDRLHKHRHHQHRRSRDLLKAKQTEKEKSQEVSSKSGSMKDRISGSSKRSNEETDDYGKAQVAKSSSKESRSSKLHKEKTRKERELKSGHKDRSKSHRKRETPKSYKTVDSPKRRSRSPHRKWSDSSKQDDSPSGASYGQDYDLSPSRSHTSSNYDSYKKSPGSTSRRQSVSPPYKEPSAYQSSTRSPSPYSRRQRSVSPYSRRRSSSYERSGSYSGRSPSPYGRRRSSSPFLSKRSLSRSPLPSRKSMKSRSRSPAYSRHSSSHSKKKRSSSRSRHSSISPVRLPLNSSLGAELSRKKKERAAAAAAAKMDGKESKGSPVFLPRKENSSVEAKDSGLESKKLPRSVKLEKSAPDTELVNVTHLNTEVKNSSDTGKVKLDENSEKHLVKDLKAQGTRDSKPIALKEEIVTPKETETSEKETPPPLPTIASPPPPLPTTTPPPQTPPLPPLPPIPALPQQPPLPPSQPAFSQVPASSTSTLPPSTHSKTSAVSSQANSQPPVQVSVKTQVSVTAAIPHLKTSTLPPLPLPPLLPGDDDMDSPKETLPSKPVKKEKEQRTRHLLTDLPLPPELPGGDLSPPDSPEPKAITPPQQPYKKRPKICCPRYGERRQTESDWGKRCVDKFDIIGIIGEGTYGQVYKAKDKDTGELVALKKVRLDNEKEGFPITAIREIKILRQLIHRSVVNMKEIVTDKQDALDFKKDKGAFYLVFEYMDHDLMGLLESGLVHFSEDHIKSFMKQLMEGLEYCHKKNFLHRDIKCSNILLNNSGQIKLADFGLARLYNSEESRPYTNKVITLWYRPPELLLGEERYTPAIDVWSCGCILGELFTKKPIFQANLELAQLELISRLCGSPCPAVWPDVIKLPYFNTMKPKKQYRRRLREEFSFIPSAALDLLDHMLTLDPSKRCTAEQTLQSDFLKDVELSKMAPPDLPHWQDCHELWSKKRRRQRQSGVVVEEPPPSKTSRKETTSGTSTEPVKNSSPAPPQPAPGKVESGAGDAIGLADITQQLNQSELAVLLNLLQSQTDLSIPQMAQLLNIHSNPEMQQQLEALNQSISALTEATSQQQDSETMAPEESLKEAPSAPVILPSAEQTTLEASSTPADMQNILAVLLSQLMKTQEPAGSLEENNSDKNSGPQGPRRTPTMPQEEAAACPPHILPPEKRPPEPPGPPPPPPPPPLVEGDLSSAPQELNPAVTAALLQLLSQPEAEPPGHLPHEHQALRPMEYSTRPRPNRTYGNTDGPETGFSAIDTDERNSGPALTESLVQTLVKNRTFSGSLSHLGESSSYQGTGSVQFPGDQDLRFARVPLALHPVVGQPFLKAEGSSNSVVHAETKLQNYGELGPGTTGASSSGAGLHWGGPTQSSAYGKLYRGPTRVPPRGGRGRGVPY
Sequence (O75909 whole entry partner): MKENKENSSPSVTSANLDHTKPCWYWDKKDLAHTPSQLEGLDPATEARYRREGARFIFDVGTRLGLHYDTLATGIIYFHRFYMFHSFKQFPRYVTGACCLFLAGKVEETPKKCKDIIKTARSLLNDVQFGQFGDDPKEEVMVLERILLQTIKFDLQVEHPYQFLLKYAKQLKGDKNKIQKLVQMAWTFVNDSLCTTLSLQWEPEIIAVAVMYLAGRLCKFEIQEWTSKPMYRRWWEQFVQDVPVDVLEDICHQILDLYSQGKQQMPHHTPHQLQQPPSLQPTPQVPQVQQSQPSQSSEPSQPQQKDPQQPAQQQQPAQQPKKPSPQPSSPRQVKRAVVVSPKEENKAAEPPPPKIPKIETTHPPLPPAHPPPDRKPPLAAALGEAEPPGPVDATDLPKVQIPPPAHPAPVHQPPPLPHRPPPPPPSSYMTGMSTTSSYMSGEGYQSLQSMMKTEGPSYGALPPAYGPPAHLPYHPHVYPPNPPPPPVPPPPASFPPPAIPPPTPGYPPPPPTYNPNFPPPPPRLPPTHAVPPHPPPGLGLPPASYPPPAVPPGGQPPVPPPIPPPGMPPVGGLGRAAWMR
assay endpoint: (IC50 CDK12 high ATP) to (Degradation DC50 CDK12) ratio
Respond numerically, and do not add a unit to the figure.

Query string: Supply measured (IC50 CDK12 high ATP) to (Degradation DC50 CDK12) ratio of CN(CC(C)(C)O)c1nc(NCc2nc3c(F)c(F)ccc3[nH]2)n2ncc(C3CC3)c2n1 [Example 292] in your reply.
Result string: 758

Query string: Note down (IC50 CDK12 high ATP) to (Degradation DC50 CDK12) ratio recorded for C[C@H]1CN(c2nc(NCc3nc4ccccc4[nH]3)n3ncc(Br)c3n2)CCN1 [Example 169]
Result string: 12610

Query string: Supply recorded (IC50 CDK12 high ATP) to (Degradation DC50 CDK12) ratio for Fc1cc2nc(CNc3nc(N4CCOCC4)nc4c(Br)cnn34)[nH]c2cc1Cl [Example 336] here.
Result string: 256

Query string: Using known records, supply (IC50 CDK12 high ATP) to (Degradation DC50 CDK12) ratio for c1ccc2[nH]c(CNc3nc(N4CCOCC4)nc4c(C5CC5)cnn34)nc2c1 [Example 92]
Result string: 1378

Query string: In one line, give reported (IC50 CDK12 high ATP) to (Degradation DC50 CDK12) ratio of the entry Fc1ccc2[nH]c(CNc3nc(N4CCOCC4)nc4c(Cl)cnn34)nc2c1F [Example 357] .
Result string: 295

Query string: Quickly give me recorded (IC50 CDK12 high ATP) to (Degradation DC50 CDK12) ratio for COc1cccc2[nH]c(CNc3nc(N4C[C@H]5C[C@@H]4CO5)nc4c(C5CC5)cnn34)nc12 [Example 198]
Result string: 214

Query string: Quote (IC50 CDK12 high ATP) to (Degradation DC50 CDK12) ratio reported for Fc1ccc2[nH]c(CNc3nc(N4CCOCC4)nc4c(-c5cnn(C(F)F)c5)cnn34)nc2c1F [Example 422] please.
Result string: 239

Query string: Note down (IC50 CDK12 high ATP) to (Degradation DC50 CDK12) ratio recorded for FC(F)(F)c1ccc2[nH]c(CNc3nc(N4CC5CCC(C4)N5)nc4c(C5CC5)cnn34)nc2c1 [Example 327]
Result string: 235

Query string: Please report the measured (IC50 CDK12 high ATP) to (Degradation DC50 CDK12) ratio for CC1CN(C)CCN1c1nc(NCc2nc3ccccc3[nH]2)n2ncc(Br)c2n1 (centres unmarked) [Example 156]
Result string: 8849

Query string: Answer with the recorded (IC50 CDK12 high ATP) to (Degradation DC50 CDK12) ratio of Fc1cccc(-c2nnc(CNc3nc(N4CCOCC4)nc4c(C(F)(F)F)cnn34)[nH]2)c1 [Example 385] only.
Result string: 31

Query string: Note (IC50 CDK12 high ATP) to (Degradation DC50 CDK12) ratio for the compound shown: C[C@@H]1CN(c2nc(NCc3nc4ccccc4[nH]3)n3ncc(C4CC4)c3n2)C[C@H](C)N1 [Example 248]
Result string: 9730

Query string: // Input: Fc1c(Cl)ccc2[nH]c(CNc3nc(N4CC5CCC(C4)N5)nc4c(C5CC5)cnn34)nc12 [Example 379] . Output its (IC50 CDK12 high ATP) to (Degradation DC50 CDK12) ratio only.
Result string: 121

Query string: Consider the compound CN(CC(C)(C)O)c1nc(NCc2nc3ccccc3[nH]2)n2ncc(Br)c2n1 [Example 238] and give its recorded (IC50 CDK12 high ATP) to (Degradation DC50 CDK12) ratio.
Result string: 276

====

molecular target: CDK12 (nuclear staining in CAL-120 cells) (Homo sapiens); construct: endogenous in cells; host or cells: CAL-120 human breast cancer cells (DSMZ ACC 459); test: CDK12 nuclear protein level: immunofluorescence/high content analysis (CAL-120); format: cell-based; conditions: CAL-120 cells, 24 h, immunofluorescence; 50% reduction of nuclear CDK12 staining intensity; median; read-out: CDK12 degradation IF, DC50- [mol/l] (median)
assay endpoint: log10(DC50) (log10 of the value in nM)
// units: nM (pre-log); metric: DC50; scale: log10

Query string: Determine from records and report log10(DC50) for Clc1cc2nc(CNc3nc(N4CC5CCC(C4)N5)nc4c(C5CC5)cnn34)[nH]c2cc1Cl
Result string: 1.26

Query string: Quickly give me recorded log10(DC50) for Cc1ccc2[nH]c(CNc3nc(N4C[C@H]5C[C@@H]4CO5)nc4c(C5CC5)cnn34)nc2c1
Result string: 0.28

Query string: Note down log10(DC50) recorded for CC(C)c1cnn2c(NCc3nc4ccccc4[nH]3)nc(N3CCN(C)CC3)nc12
Result string: 0.93

Query string: Please report the measured log10(DC50) for Fc1cccc2[nH]c(CNc3nc(N4C[C@H]5CC[C@@H](C4)N5)nc4c(C5CC5)cnn34)nc12
Result string: 0.41

Query string: Input CC[C@H](CO)Nc1nc(NCc2nc3ccccc3[nH]2)n2ncc(Br)c2n1 , output reported log10(DC50).
Result string: 0.97

Query string: Write down log10(DC50) measured for item Fc1ccc2[nH]c(CNc3nc(N4CC5CCC(C4)N5)nc4c(Cl)cnn34)nc2c1F.O=CO
Result string: 0.81

Query string: Provide only the value of recorded log10(DC50) for OCC1COCCN1c1nc(NCc2nc3ccccc3[nH]2)n2ncc(Br)c2n1 (stereo not shown)
Result string: 0.58

Query string: Determine its reported log10(DC50): Cc1ccc2[nH]c(CNc3nc(N4CCOCC4)nc4c(C5CC5)cnn34)nc2c1
Result string: 0.43

Query string: Give log10(DC50) for CC(C)c1cnn2c(NCc3nc4ccccc4[nH]3)nc(N(C)C)nc12
Result string: 1.98

Query string: Using the record for N#Cc1cnn2c(NCc3nc4ccccc4[nH]3)nc(N3CCOCC3)nc12 , state its measured log10(DC50).
Result string: 0.98

Query string: Determine from records and report log10(DC50) for FC(F)(F)Oc1cccc(-c2cnc(CNc3nc(N4CCOCC4)nc4c(Br)cnn34)[nH]2)c1
Result string: 1.35

Query string: Read the entry Fc1ccc2[nH]c(CNc3nc(N4CCOCC4)nc4c(C5CCOCC5)cnn34)nc2c1F and write its reported log10(DC50).
Result string: 1.59

Query string: Answer with reported log10(DC50) of Fc1ccc2[nH]c(CNc3nc(N4CCOCC4)nc4c(Br)cnn34)nc2c1F
Result string: -0.17

Query string: Answer with the recorded log10(DC50) for the compound listed here: Cc1cccc(-c2nnc(CNc3nc(N4CCOCC4)nc4c(Br)cnn34)[nH]2)c1
Result string: 0.66

Query string: Give the reported log10(DC50) for this compound. C[C@@H]1CN(c2nc(NCc3nc4ccccc4[nH]3)n3ncc(Br)c3n2)CCN1C
Result string: 0.57

Query string: Answer with reported log10(DC50) of Clc1ccc(-c2cnc(CNc3nc(N4CCOCC4)nc4c(Br)cnn34)[nH]2)cc1
Result string: 1.00

====

Biological target: CDK12 (nuclear staining in CAL-120 cells) (Homo sapiens, UniProt Q9NYV4)
Construct: endogenous in cells; host or cells: CAL-120 human breast cancer cells (DSMZ ACC 459)
Test: CDK12 nuclear protein level: immunofluorescence/high content analysis (CAL-120)
Type: cell-based
Settings: CAL-120 cells, 24 h, immunofluorescence; 50% reduction of nuclear CDK12 staining intensity; median; read-out: CDK12 degradation IF, DC50- [mol/l] (median)
Method: In the context of the present invention, the term “DC50 CDK12” refers to the DC50 values obtained according to the assay described in this section (7) herein below, i.e. the DC50 values for the degradation of CDK12. Plates are then incubated for 24 h at 37° C. in an humidified incubator and fixed with 4% PFA for 10 min. […] Nuclear and cytoplasmic intensity as well as the nuclear/cytoplasmic intensity ratio is determined by automated image analysis using custom generated scripts (MetaXpress). […]
assay endpoint: DC50 (nM)
Give just the number in nM; leave the unit off.

Query string: Give DC50 for CN1CCN(c2nc(NCc3nc4c(F)cccc4[nH]3)n3ncc(C4CC4)c3n2)CC1
Result string: 0.405

Query string: Answer with the recorded DC50 for the compound listed here: CC[C@H](COC)Nc1nc(NCc2nc3ccccc3[nH]2)n2ncc(Br)c2n1
Result string: 20.6

Query string: Return DC50 for the following compound: Fc1cc2nc(CNc3nc(N4CCOCC4)nc4c(Br)cnn34)[nH]c2cc1Cl
Result string: 3.08

Query string: State, in one line, measured DC50 of Fc1cccc2[nH]c(CNc3nc(N4CCOCC4)nc4c(Cl)cnn34)nc12
Result string: 6.4

Query string: Give recorded DC50. Fc1cccc2[nH]c(CNc3nc(N4CCOCC4)nc4c(CC(F)(F)F)cnn34)nc12
Result string: 11

Query string: Fill in reported DC50 for this entry: CC1CN(C)CCN1c1nc(NCc2nc3ccccc3[nH]2)n2ncc(Br)c2n1 (centres unmarked) [Example 156]
Result string: 1.06

Query string: Return the recorded DC50 value; entry: Clc1cc2nc(CNc3nc(N4CC5CCC(C4)N5)nc4c(Br)cnn34)[nH]c2cc1Cl
Result string: 33.5

Query string: State its DC50: Clc1cccc(-c2nnc(CNc3nc(N4CCOCC4)nc4c(Br)cnn34)[nH]2)c1
Result string: 7.81
